System: Staphylococcus aureus
Assay: Activity at Staphylococcus aureus wild-type DNA topoisomerase 4 subunit ParC
Entries and their CC50 values follow.
Respond with the bare value in nM.

Solved cases (3 shown):
Query :: Query: CC50; subject: Cc1c(N2CC[C@@H](N)C2)c(F)cn2c(=O)c(C(=O)O)cc(C3CC3)c12
Result :: 60

Query :: Next up: COc1c(N2CCNC(C)C2)c(F)cc2c(=O)c(C(=O)O)cn(C3CC3)c12 (centres undefined)
Result :: 220

Query :: Next up: CO[C@H]1/C=C/O[C@@]2(C)Oc3c(C)c(O)c4c(O)c(c(/C=N/N5CCC(N(C)C6([C@@H]7CCN(c8c(F)cn9c(=O)c(C(=O)O)cc(C%10CC%10)c9c8C)C7)CC6)CC5)c(O)c4c3C2=O)NC(=O)/C(C)=C\C=C\[C@H](C)[C@H](O)[C@@H](C)[C@@H](O)[C@@H](C)[C@H](OC(C)=O)[C@@H]1C
Result :: 1700

Turning to the following compound.
Query :: Query: CC50; subject: O=C(O)c1cn(C2CC2)c2cc(N3CCNCC3)c(F)cc2c1=O
Result :: 400
